Just for reference, patent US20230303581A1 is where these values come from.

assayText: PK evaluation in CD-1 mice (plasma and tissue concentrations)
Format: in vivo
appliedConditions: male, CD-1, mouse; intravenous 5 mg/kg, liver
experimentalReadout: half-life (h)

compound="O=C1c2ccc(Cl)cc2N/C(=N/N=C/c2cc3ccccc3s2)[C@@H]2CCCN12 [Compound 4k]" valueunits=h measurednumber=9.26

* * *

assayText: PK evaluation in CD-1 mice (plasma and tissue concentrations)
Type: in vivo
appliedConditions: male, CD-1, mouse; oral 5 mg/kg, kidney; read-out: Cmax
experimentalReadout: Cmax (ng/g)

molecule=O=C1c2ccc(Cl)cc2N/C(=N/N=C/c2cc3ccccc3s2)[C@@H]2CCCN12 valueunits=ng/g measurednumber=795

* * *

testSystem: human CB1 receptors (Homo sapiens (Human))
Sequence (P21554 whole entry): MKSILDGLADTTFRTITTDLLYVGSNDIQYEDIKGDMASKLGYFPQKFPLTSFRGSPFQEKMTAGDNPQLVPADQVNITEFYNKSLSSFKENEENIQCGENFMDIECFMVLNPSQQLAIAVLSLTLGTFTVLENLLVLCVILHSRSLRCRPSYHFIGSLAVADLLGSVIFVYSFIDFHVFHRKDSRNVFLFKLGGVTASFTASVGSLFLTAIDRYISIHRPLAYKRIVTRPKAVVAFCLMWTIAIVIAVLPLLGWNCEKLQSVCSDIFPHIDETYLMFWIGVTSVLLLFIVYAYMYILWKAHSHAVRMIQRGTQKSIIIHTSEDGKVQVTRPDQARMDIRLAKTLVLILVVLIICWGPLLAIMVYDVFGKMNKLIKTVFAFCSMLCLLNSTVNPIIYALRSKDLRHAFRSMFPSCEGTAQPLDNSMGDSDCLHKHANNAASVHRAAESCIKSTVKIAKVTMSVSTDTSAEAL
assayText: Cannabinoid receptor binding (displacement) assay, CB1
appliedConditions: 10 μM compound
Below, each entry is listed alongside its reported Displacement of [3H]CP-55,940 from CB1.
experimentalReadout: Displacement of [3H]CP-55,940 from CB1 (%)

compound="O=C1c2ccccc2N/C(=N/N=C/c2sc(Cl)nc2Cl)[C@@H]2CCCN12 [Compound 4g]" measurednumber=24.19
compound="Nc1ncc(/C=N/N=C2/Nc3ccccc3C(=O)N3CCC[C@@H]23)s1 [Compound 4f]" measurednumber=1.75
compound="O=C1c2ccccc2N/C(=N/N=C/c2sc3ccccc3c2Cl)[C@@H]2CCCN12 [Compound 4m]" measurednumber=5.22
compound="Cc1ncc(/C=N/N=C2/Nc3ccccc3C(=O)N3CCC[C@@H]23)s1 [Compound 4d]" measurednumber=−27.99
compound="Cn1cc(/C=N/N=C2/Nc3ccccc3C(=O)N3CCC[C@@H]23)c2ccccc21 [Compound 4o]" measurednumber=5.09
compound="O=C1c2ccccc2N/C(=N/N=C/c2ccc[nH]2)[C@@H]2CCCN12 [Compound 4a]" measurednumber=−3.09
compound="Cn1ccnc1/C=N/N=C1/Nc2ccccc2C(=O)N2CCC[C@@H]12 [Compound 4b]" measurednumber=−13.99
compound="Cc1ncsc1/C=N/N=C1/Nc2ccccc2C(=O)N2CCC[C@@H]12 [Compound 4e]" measurednumber=21.88
compound="Cc1c(/C=N/N=C2/Nc3ccccc3C(=O)N3CCC[C@@H]23)sc2ccccc12 [Compound 4l]" measurednumber=77.17

* * *

assayText: PK evaluation in CD-1 mice (plasma and tissue concentrations)
Assay type: in vivo
appliedConditions: male, CD-1, mouse; intravenous 5 mg/kg, kidney
experimentalReadout: half-life (h)

molecule=O=C1c2ccc(Cl)cc2N/C(=N/N=C/c2cc3ccccc3s2)[C@@H]2CCCN12 experimentalreadout=half-life measurednumber=10.2

* * *

assayText: PK evaluation in CD-1 mice (plasma and tissue concentrations)
Format: in vivo
appliedConditions: male, CD-1, mouse; oral 5 mg/kg, brain
experimentalReadout: half-life (h)

molecule=O=C1c2ccc(Cl)cc2N/C(=N/N=C/c2cc3ccccc3s2)[C@@H]2CCCN12 experimentalreadout=half-life measurednumber=22.9

* * *

assayText: PK evaluation in CD-1 mice (plasma and tissue concentrations)
Format: in vivo
appliedConditions: male, CD-1, mouse; intravenous 5 mg/kg, brain
experimentalReadout: clearance

molecule=O=C1c2ccc(Cl)cc2N/C(=N/N=C/c2cc3ccccc3s2)[C@@H]2CCCN12 experimentalreadout=clearance result="15.7 mL/min/kg"

* * *

assayText: PK evaluation in CD-1 mice (plasma and tissue concentrations)
Assay type: in vivo
appliedConditions: male, CD-1, mouse; oral 5 mg/kg, kidney
experimentalReadout: half-life

molecule=O=C1c2ccc(Cl)cc2N/C(=N/N=C/c2cc3ccccc3s2)[C@@H]2CCCN12 result="16.7 h"

* * *

assayText: PK evaluation in CD-1 mice (plasma and tissue concentrations)
Assay type: in vivo
appliedConditions: male, CD-1, mouse; oral 5 mg/kg, brain; read-out: Cmax
experimentalReadout: Cmax (ng/g)

molecule=O=C1c2ccc(Cl)cc2N/C(=N/N=C/c2cc3ccccc3s2)[C@@H]2CCCN12 valueunits=ng/g measurednumber=602
